# System name: Carnitine O-palmitoyltransferase 1, muscle isoform (Rattus norvegicus, UniProt Q63704)
# Sequence (Q63704 whole entry): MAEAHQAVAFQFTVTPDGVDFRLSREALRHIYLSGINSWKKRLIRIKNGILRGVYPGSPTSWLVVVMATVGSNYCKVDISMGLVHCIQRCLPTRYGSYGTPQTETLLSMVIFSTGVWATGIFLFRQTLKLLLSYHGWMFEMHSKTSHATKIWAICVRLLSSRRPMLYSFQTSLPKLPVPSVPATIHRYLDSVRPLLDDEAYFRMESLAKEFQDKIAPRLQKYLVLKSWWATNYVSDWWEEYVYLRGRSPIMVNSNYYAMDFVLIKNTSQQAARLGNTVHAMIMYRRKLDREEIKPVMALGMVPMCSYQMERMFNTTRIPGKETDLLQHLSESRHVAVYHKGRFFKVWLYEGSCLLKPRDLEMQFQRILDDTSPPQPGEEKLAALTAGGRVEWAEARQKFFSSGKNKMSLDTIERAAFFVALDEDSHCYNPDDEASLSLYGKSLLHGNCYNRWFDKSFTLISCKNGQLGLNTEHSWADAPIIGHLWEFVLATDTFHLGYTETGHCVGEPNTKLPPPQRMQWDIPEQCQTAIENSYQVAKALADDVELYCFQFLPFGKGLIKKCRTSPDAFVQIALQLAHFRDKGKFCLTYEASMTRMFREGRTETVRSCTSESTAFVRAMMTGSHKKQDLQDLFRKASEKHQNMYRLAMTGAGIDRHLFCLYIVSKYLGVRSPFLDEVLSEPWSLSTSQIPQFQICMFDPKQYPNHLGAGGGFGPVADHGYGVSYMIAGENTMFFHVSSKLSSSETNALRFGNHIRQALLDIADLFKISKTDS
# Measurement description: Inhibitory activity against rat heart mitochondrial carnitine palmitoyltransferase 1b using [14C]palmitoyl-CoA as radioligand
Assay readout: IC50 (µM)

(P) CCCCCCCCOC(=O)NC(CC(=O)[O-])C[N+](C)(C)C (stereo not given)
(Q) CCCCCCCCCCS(=O)(=O)NC(CC(=O)[O-])C[N+](C)(C)C (stereo not given)
(R) CCCCCCCCCCCCS(=O)(=O)N[C@H](CC(=O)[O-])C[N+](C)(C)C
Which order do these fall in by IC50? Give them lowest to highest. Please list the labels in the order you were asked to rank them.
Q, R, P

---

# System name: Carnitine O-palmitoyltransferase 1, liver isoform (Rattus norvegicus, UniProt P32198)
# Sequence (P32198 whole entry, canonical isoform): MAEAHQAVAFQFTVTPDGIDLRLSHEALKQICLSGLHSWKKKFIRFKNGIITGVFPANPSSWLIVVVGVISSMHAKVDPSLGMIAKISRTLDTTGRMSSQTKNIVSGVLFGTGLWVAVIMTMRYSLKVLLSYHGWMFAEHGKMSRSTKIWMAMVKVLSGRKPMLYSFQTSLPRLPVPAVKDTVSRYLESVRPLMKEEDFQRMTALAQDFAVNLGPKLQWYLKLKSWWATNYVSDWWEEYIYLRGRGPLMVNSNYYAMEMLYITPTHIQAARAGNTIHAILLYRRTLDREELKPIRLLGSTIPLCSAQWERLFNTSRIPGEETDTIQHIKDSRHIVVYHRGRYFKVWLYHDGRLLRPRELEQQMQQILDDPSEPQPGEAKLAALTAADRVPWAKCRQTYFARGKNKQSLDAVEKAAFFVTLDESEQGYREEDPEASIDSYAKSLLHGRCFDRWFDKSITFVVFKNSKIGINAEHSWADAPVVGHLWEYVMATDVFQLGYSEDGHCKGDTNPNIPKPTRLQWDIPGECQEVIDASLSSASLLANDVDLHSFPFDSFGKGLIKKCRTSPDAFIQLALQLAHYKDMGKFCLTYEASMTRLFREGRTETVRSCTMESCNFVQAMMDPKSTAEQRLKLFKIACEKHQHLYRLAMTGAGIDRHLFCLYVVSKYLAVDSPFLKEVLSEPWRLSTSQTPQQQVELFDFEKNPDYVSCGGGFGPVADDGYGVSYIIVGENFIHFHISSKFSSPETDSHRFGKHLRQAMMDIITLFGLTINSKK
# Measurement description: Inhibition of rat liver mitochondrial carnitine palmitoyltransferase 1 using [14C]palmitoyl-CoA radioligand
pIC50: −log10 of the molar value.
Assay readout: pIC50

Molecule | pIC50
CCCCCCCCCNC(=O)NC(CC(=O)[O-])C[N+](C)(C)C (stereo unspecified) | 4.71

(a) CCCCCCCCCCS(=O)(=O)NC(CC(=O)[O-])C[N+](C)(C)C (stereo unspecified)
(b) CCCCCCCCCNC(=S)NC(CC(=O)[O-])C[N+](C)(C)C (stereo unspecified)
Higher pIC50: a or b ? I would appreciate it if you answered with the label of your choice.
a
(a: 5.80, b: 3.91)

(a) CCCCCCCCCCCCCCOC(CC(=O)[O-])C[N+](C)(C)C (stereo unspecified)
(b) CCCCCCCCCCCCS(=O)(=O)N[C@H](CC(=O)[O-])C[N+](C)(C)C
Param metric = pIC50; output whichever of a , b has the minimum value. Write down the label of the entry you select.
a
